# Measured target: Voltage-gated inwardly rectifying potassium channel KCNH2 (Homo sapiens) (UniProt Q12809)
# Sequence (Q12809 whole entry, looked up): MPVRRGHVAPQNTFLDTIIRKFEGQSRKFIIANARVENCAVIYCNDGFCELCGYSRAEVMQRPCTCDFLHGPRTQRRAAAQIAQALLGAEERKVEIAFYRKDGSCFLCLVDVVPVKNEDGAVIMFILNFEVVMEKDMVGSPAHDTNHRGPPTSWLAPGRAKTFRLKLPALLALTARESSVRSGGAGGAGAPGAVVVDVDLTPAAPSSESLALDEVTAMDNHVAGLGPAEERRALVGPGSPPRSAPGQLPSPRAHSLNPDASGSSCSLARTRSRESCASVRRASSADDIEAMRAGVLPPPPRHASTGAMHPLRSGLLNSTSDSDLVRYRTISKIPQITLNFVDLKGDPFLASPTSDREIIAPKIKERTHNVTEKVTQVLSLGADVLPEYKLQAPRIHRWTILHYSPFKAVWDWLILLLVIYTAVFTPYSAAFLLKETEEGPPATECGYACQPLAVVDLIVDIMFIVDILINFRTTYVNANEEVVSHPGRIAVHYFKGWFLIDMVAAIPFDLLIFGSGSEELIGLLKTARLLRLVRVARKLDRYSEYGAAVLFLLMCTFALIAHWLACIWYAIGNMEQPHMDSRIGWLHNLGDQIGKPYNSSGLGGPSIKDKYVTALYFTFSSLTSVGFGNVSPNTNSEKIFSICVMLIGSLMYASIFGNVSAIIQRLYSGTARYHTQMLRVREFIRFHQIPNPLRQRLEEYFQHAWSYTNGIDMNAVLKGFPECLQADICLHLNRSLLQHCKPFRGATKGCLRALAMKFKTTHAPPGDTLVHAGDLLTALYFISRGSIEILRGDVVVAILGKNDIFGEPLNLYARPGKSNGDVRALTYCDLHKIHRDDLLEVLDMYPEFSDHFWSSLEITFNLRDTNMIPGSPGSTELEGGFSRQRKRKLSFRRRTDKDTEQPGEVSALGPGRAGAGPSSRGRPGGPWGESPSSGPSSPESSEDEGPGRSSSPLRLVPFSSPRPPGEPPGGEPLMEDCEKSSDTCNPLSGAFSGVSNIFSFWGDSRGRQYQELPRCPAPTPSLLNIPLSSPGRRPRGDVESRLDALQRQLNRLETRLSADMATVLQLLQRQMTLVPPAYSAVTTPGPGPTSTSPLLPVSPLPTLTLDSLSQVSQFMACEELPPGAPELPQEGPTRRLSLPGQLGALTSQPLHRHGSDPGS
# Procedure summary: hERG protection against dofetilide inhibition, confirmation, cell-based, thallium flux, duplicate retest, dofetilide IC70 (AID 1835)
# Condition parameters: hERG cell line, FluxOR thallium flux, dofetilide-blocked; at 10 µM; hits give high values
The whole screen tested about 2,400 compounds, of which about 750 (31%) were called active. The list shows a part of the results.
Endpoint name: activity increase over dofetilide control, less the hit threshold

// for each compound in input: emit activity increase over dofetilide control, less the hit threshold
1. O=C(N/N=C/c1cc([N+](=O)[O-])ccc1O)c1ccc(COc2ccc3c(c2)CCC3)o1
2. COc1ccc(NC(=O)C(=O)NNC(=O)c2cccs2)c(OC)c1
3. O=C(CCc1ccccc1)Nc1nccs1
4. Oc1ccc(N=Nc2ccccc2-c2nn[nH]n2)c(O)c1
5. CCOC(=O)c1c(NS(=O)(=O)Cc2ccccc2)sc2c1CCCC2
6. Nc1ncnc(NC2CCS(=O)(=O)C2)c1[N+](=O)[O-] (stereo not drawn)
7. CN1N=C(C(=O)N2CCc3c([nH]c4ccccc34)C2c2c(F)cccc2Cl)CCC1=O (stereo not drawn)

[A]
["-10% (inactive)", "28% (active)", "-12% (inactive)", "6% (active)", "69% (active)", "-12% (inactive)", "-13% (inactive)"]
